# SYSTEM_TESTED: T1, human C5 (human, UniProt P01031 19-673; P01031 678-1676, Beta and alpha chains are disulfide-linked and the protein is glycosylated.)
# T1 construct: Either in-house recombinant C5 or plasma derived C5 (CALBIOCHEM) was used; also called recombinant human C5; plasma derived human C5
# ASSAY: Biacore, captured antibody, pH 7.4, 37 C;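 further: biacore binding response of anti-C5 antibody light chain variants captured on chip with human C5 injected, ACES running buffer containing 1.2 mM CaCl₂, parent light chain antibody set to 100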
ASSAY_READOUT: % binding (parent = 100)
The reply must contain the numeric value and, after it, the unit.

Please look at the items below and tell me % binding (parent = 100) for each one, in order.
1. CFP0015 15L 30H (antibody, V domains shown) VH: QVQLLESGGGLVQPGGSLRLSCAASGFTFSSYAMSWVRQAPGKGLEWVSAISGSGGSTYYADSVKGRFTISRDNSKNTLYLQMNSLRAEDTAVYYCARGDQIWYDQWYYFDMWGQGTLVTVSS VL: DIQMTQSPSSLSASVGDRVTITCRASQSIHDDLAWYQQKPGKAPKLLIYEASNLQSGVPSRFSGSGSGTDFTLTISSLQPEDFATYYCQQYDSSPLTFGQGTKVEIK
2. CFP0019 (antibody, V domains shown, IgG format) VH: QVQLQESGPGLVKPSETLSLTCAVSGYSISSGYYWGWIRQPPGKGLEWIGSIYHSGSTYYNPSLKSRVTISVDTSKNQFSLKLSSVTAADTAVYYCARYYVWLGGPTYMDYWGQGTLVTVSS VL: DIQMTQSPSSLSASVGDRVTITCRASQSIEDDLAWYQQKPGKAPKLLIYHASTLQSGVPSRFSGSGSGTDFTLTISSLQPEDFATYYCQQSDGYPLTFGQGTKVEIK

Reply:
1: 18.4%; 2: 100%
